Reference for the values: ChEMBL document CHEMBL1201862

Test system: KM12
Experiment: NCI tumour cell line growth inhibition, 48 h
The source made the active and inactive calls. Cut-off read from the data, not from the text of the source: active = GI50 up to about 1.1 µM and inactive = higher.
Would you mind answering with one of these outcomes? active, inactive

Worked examples follow.
CC1=CC2CC(C)=C(CC[C@]3(C)CC[C@H]([C@@H](C)C(=O)O)OO3)C(C)(C)C2CC1 (stereo not given in full) | active
CN(CN1C(=O)C2Cc3ccccc3CN2C1=O)c1ccccn1 (stereo not given) | inactive
COCN(CCC1=CCCCC1)C(=O)OC | inactive
COC(=O)C(C(=O)Cc1ccccc1[N+](=O)[O-])C(=O)OC | inactive
OCC1(CNc2cc(Cl)ncn2)CCC1 | inactive

Enquiry: Hi, sorry to bother you, what did the test record for CN(C)CCNc1ccc(C(=O)NCCCN(C)CCCNC(=O)c2ccc(NCCN(C)C)c3c(=O)c4ccccc4[nH]c23)c2[nH]c3ccccc3c(=O)c12 ?
Return: active

Enquiry: Hi, sorry to bother you, what did the test record for COC(=O)C(=O)C(C(=O)C(=O)Nc1cc(C)ccc1C)c1nc2ccc(C(=O)c3ccccc3)cc2nc1O (stereo not given) ?
Return: inactive

====

Task for the reader: assign each of the following compounds its reported GI50.
Tested on: RPMI-8226
Assay: NCI tumour cell line growth inhibition, 48 h
Activity calls are given as the source filed them. No stated cut-off is given here; in the data, active = GI50 up to about 1.1 µM and inactive = higher.

Examples from the recorded data:
Cc1ccc(-n2nnc(C(N)=O)c2O)cc1 | > 100 µM (inactive)
O=C(Nc1ccc([N+](=O)[O-])cc1C(=O)O)c1ccc([N+](=O)[O-])cc1 | 14.4 µM (inactive)
O=C(Oc1ccccn1)c1cc2cc(CCl)ccc2oc1=O | 35.6 µM (inactive)

Could you report GI50 for every entry in the following list?
1. Cc1ccc(C2=NN=C3C(c4ccccc4)=Nc4ccccc4N3C2)cc1
2. Cc1c(N)c(C#N)c2n(C)c3ncccc3n2c1=O
3. CC1(C)CC2C(C1=O)C1(C)CCCC2(C)C1=O (stereo unspecified)
4. CN1CCN(C(=S)N(C(=O)c2ccc(Cl)cc2)C2CCCCC2)CC1
5. COc1ccc(C(=O)N(Cc2cccnc2)C(=S)N(Cc2cccnc2)C(=O)c2ccc(OC)cc2)cc1
6. OCC1(CNc2cc(Cl)ncn2)CCC1

Return:
1. 5.98 µM (inactive)
2. > 100 µM (inactive)
3. > 100 µM (inactive)
4. > 100 µM (inactive)
5. > 100 µM (inactive)
6. > 100 µM (inactive)

Could you report GI50 for every entry in the following list?
1. COc1ccc(C(=O)N2CCN(c3ccc4[nH]c(=O)oc4c3)CC2)cc1
2. Cc1ccc(S(=O)(=O)N2C3C=CC(C3)[C@@H]2C(Cl)(Cl)Cl)cc1 (stereo partly specified)

Return:
["> 100 µM (inactive)", "3.09 µM (inactive)"]

====

Test system: KM-20L2
Assay: NCI tumour cell line growth inhibition, 48 h
Activity calls are given as the source filed them. Cut-off read from the data, not from the text of the source: active = GI50 up to about 1.1 µM and inactive = higher.
Would you mind answering with one of these outcomes? T = active, F = inactive

Worked examples follow.
CC1=CC2CC(C)=C(CC[C@]3(C)CC[C@H]([C@@H](C)C(=O)O)OO3)C(C)(C)C2CC1 (stereo not given in full) | F
COc1cccc2nc3c(C(=O)NCCN(C)C)cccc3nc12 | F
CCCCCCCC(=O)OCC1OC(n2cc(F)c(=O)[nH]c2=O)C(NC(=O)OCc2ccccc2)C(O)C1O (stereo not given) | F
CCOC(=N)CC(=O)NC(C)c1ccccc1 (stereo not given) | F

Enquiry: Hi, sorry to bother you, what did the test record for Cc1cccc(C)c1NC(=O)C1C(=O)N(c2c(C)cccc2C)C(=O)/C1=N\N (stereo not given) ?
Return: F

Enquiry: Hi, sorry to bother you, what did the test record for O=C1C=C2SC3C[C@@]24CC1(O)[N+]1=c2c4c(c(O)c4c2=C(C=N4)CC1)N3 ?
Return: T

Enquiry: Hi, sorry to bother you, what did the test record for CN(C)C(=S)/N=c1\ss/c(=N\C(=S)N(C)C)n1C1CCCCC1 ?
Return: F

====

System: HT-29
Assay: NCI tumour cell line growth inhibition, 48 h
The source made the active and inactive calls. No stated cut-off is given here; in the data, active = GI50 up to about 1.1 µM and inactive = higher.
Task for the reader: assign each of the following compounds its reported GI50.

Could you report GI50 for every entry in the following list?
1. O=c1c2ccccc2c(=O)c2c1c1[nH]c3ccccc3c1c1c(=O)c3ccccc3c(=O)c21
2. Nc1ccc(-c2nc3ccccc3s2)cc1Br
3. Cc1c(C(=O)Nc2ccccc2)nnn1-c1ccnc2cc(C(F)(F)F)ccc12
4. CCOCC(=O)N(C)c1cccc2c3c(n(C)c12)CCCCC3

Return:
> 100 µM (inactive)
> 100 µM (inactive)
80.2 µM (inactive)
> 100 µM (inactive)

====

Tested on: MOLT-4
Assay: NCI tumour cell line growth inhibition, 48 h
Active and inactive are the calls of the source. Rule as the data show it: active = GI50 up to about 1.1 µM and inactive = higher.
Would you mind answering with one of these outcomes? T = active, F = inactive

Worked examples follow.
CCN(CC)CC1CCCCN1CC(=O)N1CC(C)C(=O)Nc2ccccc21 (configuration not stated) | F
CN(C)CCNC1=CC(=O)c2nc3ccccc3c3ccnc1c23 | F

Enquiry: Hi, sorry to bother you, what did the test record for O=S(=O)(O)c1cc(S(=O)(=O)O)c2c(/N=N/c3ccc(S(=O)(=O)O)c4ccccc34)c(O)ccc2c1 ?
Return: F

Enquiry: Hi, sorry to bother you, what did the test record for OC(CC1SCCCS1)c1ccccc1 (configuration not stated) ?
Return: F

Enquiry: Hi, sorry to bother you, what did the test record for O=C(Cc1ccc(Cl)c(Cl)c1)NCC1(N2CCCCC2)CCCCC1 ?
Return: F

Enquiry: Hi, sorry to bother you, what did the test record for COc1ccc(/C=C/C(=O)Oc2ccccc2OC)cc1 ?
Return: F

Enquiry: Hi, sorry to bother you, what did the test record for C/C(O)=C/C(=O)c1[nH]c(C(=O)O)cc1C1CCN(Cc2ccccc2)C1=O (configuration not stated) ?
Return: F

====

Tested on: SK-MEL-2
Assay: NCI tumour cell line growth inhibition, 48 h
Activity calls are given as the source filed them. Cut-off read from the data, not from the text of the source: active = GI50 up to about 1.1 µM and inactive = higher.
Would you mind answering with one of these outcomes? t for active, f for inactive

Worked examples follow.
CCCC/C=C1/CCC(CN(C)C)C1=O (stereo unspecified) | f
C/C(=N\N)C(CN1CCCCC1)C(c1ccccc1)c1c(O)c2ccccc2oc1=O (stereo unspecified) | f
CCCCNC(=S)Nc1nc(C(=O)NNC(=S)NCC)cs1 | f
CCCCCCCCCCCC(=O)NCc1ccc(OC(=O)CCCCCCCCCCC)c(OC)c1 | f
C/C(=N\NC(N)=S)c1cc(C)c(C)cc1C | f

Enquiry: Hi, sorry to bother you, what did the test record for NNS(=O)(=O)c1cc(C(=O)O)cc(C(=O)O)c1 ?
Return: f

====

System: XF498
Assay: NCI tumour cell line growth inhibition, 48 h
Calls of active or inactive are those of the source. Cut-off read from the data, not from the text of the source: active = GI50 up to about 1.1 µM and inactive = higher.
quantityMeasured: GI50

Could you report GI50 for every entry in the following list?
1. COc1cc(Nc2nc3cc(C(F)(F)F)ccc3nc2C)cc(OC)c1OC
2. C=C1CC(CC(=O)C(C)CC2CC(=C)C(=O)O2)OC1=O (stereo not given)
3. O=C1C[C@H]2CCCN2[C@@H](c2ccccc2)C1
4. COc1ccc(NC(=O)/C(=C/c2ccc(N(CCC#N)CCC#N)cc2)NC(=O)c2cc([N+](=O)[O-])ccc2Cl)cc1
5. Nc1ccc2ncc(NCc3ccc(F)cc3)nc2c1
6. CC(C)(C)[C@H]1CO[C@]2(c3ccccc3)[C@@H]3C[C@@H]3C(=O)N12
7. Cc1cc(N(CCC#N)CCC#N)ccc1/C=C(\NC(=O)/C=C/c1ccccc1)C(=O)NN

Return:
["2.3 µM (inactive)", "23.8 µM (inactive)", "> 100 µM (inactive)", "> 100 µM (inactive)", "19.5 µM (inactive)", "> 100 µM (inactive)", "25.6 µM (inactive)"]

Could you report GI50 for every entry in the following list?
1. COc1cc(CCCC(O)COc2cccc3c2C2(O)CCCCCC32)cc(OC)c1 (stereo not given)
2. CSC(=Nc1nnc(-c2ccc([N+](=O)[O-])cc2)s1)SC
3. Cc1oc2c(C)c3oc(=O)cc(C)c3cc2c1CN

Return:
1: 19.9 µM (inactive); 2: 21.6 µM (inactive); 3: 20.7 µM (inactive)

====

Tested on: U-251
Test: NCI tumour cell line growth inhibition, 48 h
Activity calls are given as the source filed them. No stated cut-off is given here; in the data, active = GI50 up to about 1.1 µM and inactive = higher.
Task for the reader: assign each of the following compounds its reported GI50.

O=C1C(c2ccccc2)=C(O)c2cccc3cccc1c23 | > 100 µM (inactive)

Could you report GI50 for every entry in the following list?
1. Fc1nc(-c2c3ccccc3c3sc4ccccc4n23)nc(N2CCOCCOCCOCCOCC2)n1
2. CC(=O)O[C@H]1C[C@H](O[C@H]2[C@@H](O)C[C@H](O[C@H]3[C@@H](O)C[C@H](O[C@H]4CC[C@@]5(C)[C@H](CC[C@@H]6[C@@H]5CC[C@]5(O)[C@@H](C7=CC(=O)OC7)CC[C@]65O)C4)O[C@@H]3C)O[C@@H]2C)O[C@H](C)[C@H]1O[C@@H]1O[C@H](CO)[C@@H](O)[C@H](O)[C@H]1O

Return:
["44.8 µM (inactive)", "0.427 µM (active)"]
